Assay: Therapeutic index, ratio of EC50 for hemolysis of sheep erythrocytes to MIC for Staphylococcus aureus ATCC […]
Conditions: read-out: TI
Numbered stars: 1 amine (or outer) side, 2 acyl side, 3 side chain; on linkers, the order of the positions; unused ones are H or OH. Square brackets hold non-standard residues; d marks the D form. Peptide text beside a SMILES is read from it. * marks the point of attachment. X1 = CCCCCCCCC[C@H](N[*:1])C(=O)[*:2]; Decanoyl = CCCCCCCCCC(=O)*
readout.label: selectivity ratio
No unit in the answer, only the number.

## Task State, in one line, measured selectivity ratio of CCCCCCCCC[C@H](NC(=O)CN)C(=O)N[C@@H](CC(C)C)C(=O)N[C@@H](CCCCN)C(=O)N[C@@H](CCCNC(=N)N)C(=O)N[C@H](C(=O)N[C@@H](CCCCN)C(=O)N[C@H](C(=O)N[C@@H](CC(C)C)C(=O)N[C@@H](CC(C)C)C(N)=O)[C@@H](C)O)[C@@H](C)CC (H-G[X1]LKRIKTLL-NH2)
## Result 43.2

## Task State, in one line, measured selectivity ratio of CCCCCCCCC[C@H](NC(=O)[C@H](CCCNC(=N)N)NC(=O)[C@H](CCCCN)NC(=O)[C@H](CC(C)C)NC(=O)[C@H](CC(C)C)NC(=O)CN)C(=O)N[C@@H](CCCCN)C(=O)N[C@H](C(=O)N[C@@H](CC(C)C)C(=O)N[C@@H](CC(C)C)C(N)=O)[C@@H](C)O (H-GLLKR[X1]KTLL-NH2)
## Result 15.6

## Task State, in one line, measured selectivity ratio of CCCCCCCCCC(=O)NCC(=O)N[C@@H](CC(C)C)C(=O)N[C@@H](CC(C)C)C(=O)N[C@@H](CCCCN)C(=O)N[C@@H](CCCNC(=N)N)C(=O)N[C@H](C(=O)N[C@@H](CCCCN)C(=O)N[C@H](C(=O)N[C@@H](CC(C)C)C(=O)N[C@@H](CC(C)C)C(N)=O)[C@@H](C)O)[C@@H](C)CC (Decanoyl-GLLKRIKTLL-NH2)
## Result 2

## Task State, in one line, measured selectivity ratio of CCCCCCCCC[C@H](NC(=O)[C@H](CC(C)C)NC(=O)[C@@H](NC(=O)[C@H](CCCCN)NC(=O)[C@@H](NC(=O)[C@H](CCCNC(=N)N)NC(=O)[C@H](CCCCN)NC(=O)[C@H](CC(C)C)NC(=O)[C@H](CC(C)C)NC(=O)CN)[C@@H](C)CC)[C@@H](C)O)C(N)=O (H-GLLKRIKTL[X1]-NH2)
## Result 30.8
